system: RCC10RGB (Kidney Carcinoma); experiment: Bliss excess, mean over the matrix (fraction); higher = more synergy
measured.attribute: Bliss excess

[[record]]
molecule = "CC1(C)CCC(CN2CCN(c3ccc(C(=O)NS(=O)(=O)c4ccc(NCC5CCOCC5)c([N+](=O)[O-])c4)c(Oc4cnc5[nH]ccc5c4)c3)CC2)=C(c2ccc(Cl)cc2)C1 [Venetoclax] + CCN(CCO)CCCOc1ccc2c(Nc3cc(CC(=O)Nc4cccc(F)c4)[nH]n3)ncnc2c1 [AZD2811] (first compound max 1 µM, 7x7, partner max 1 µM)"
obs_value = -0.066

[[record]]
molecule = "Cc1c2c(nn1C)CSCc1cc(n(C)n1)CSc1cc(c3ccccc3c1)OCCCc1c(C(=O)O)n(C)c3c-2c(Cl)ccc13 [AZD5991] + C[C@@H](Nc1cc(F)cc(F)c1)c1cc(C(=O)N(C)C)cc2c(=O)cc(N3CCOCC3)oc12 [AZD8186] (first compound max 1 µM, 7x7, partner max 3 µM)"
obs_value = -0.0349


----------
tested on: SLVL (B-Cell Non-Hodgkin's Lymphoma); assay: Bliss excess, mean over the matrix (fraction); higher = more synergy
Reported values of Bliss excess for individual entries
measured.attribute: Bliss excess

[[record]]
compound = "CCN(CCO)CCCOc1ccc2c(Nc3cc(CC(=O)Nc4cccc(F)c4)[nH]n3)ncnc2c1 [AZD2811] + C[C@@H]1COCCN1C2=NC(=NC(=C2)C3(CC3)[S@](=N)(=O)C)C4=C5C=CNC5=NC=C4 [AZD6738] (first compound max 1 µM, 7x7, partner max 10 µM)"
obs_value = -0.0451

[[record]]
compound = "Cc1c2c(nn1C)CSCc1cc(n(C)n1)CSc1cc(c3ccccc3c1)OCCCc1c(C(=O)O)n(C)c3c-2c(Cl)ccc13 [AZD5991] + CN(C)CCCOc1ccc(-c2ccc3ncc4c(c3c2)n(C2CCOCC2)c(=O)n4C)cn1 [AZD0156] (first compound max 1 µM, 7x7, partner max 1 µM)"
obs_value = 0.0198

[[record]]
compound = "Cn1cnc2c(F)c(Nc3ccc(Br)cc3Cl)c(C(=O)NOCCO)cc21 [Selumetinib] + C=CCn1c(=O)c2cnc(Nc3ccc(N4CCN(C)CC4)cc3)nc2n1-c1cccc(C(C)(C)O)n1 [AZD1775] (first compound max 10 µM, partner max 1 µM)"
obs_value = -0.0275

[[record]]
compound = "CC(=O)c1c(C)c2cnc(Nc3ccc(N4CCNCC4)cn3)nc2n(C2CCCC2)c1=O [Palbociclib] + CC1(C)CCC(CN2CCN(c3ccc(C(=O)NS(=O)(=O)c4ccc(NCC5CCOCC5)c([N+](=O)[O-])c4)c(Oc4cnc5[nH]ccc5c4)c3)CC2)=C(c2ccc(Cl)cc2)C1 [Venetoclax] (first compound max 10 µM, 7x7, partner max 1 µM)"
obs_value = -0.0892


----------
Recorded measurements of Bliss excess, one per entry
test system: MCF7 (Breast Carcinoma); assay: Bliss excess, mean over the matrix (fraction); higher = more synergy
measured.attribute: Bliss excess

[[record]]
compound = "NC1(C(=O)N[C@@H](CCO)c2ccc(Cl)cc2)CCN(c2ncnc3[nH]ccc23)CC1 [Capivasertib] + CCN(CCO)CCCOc1ccc2c(Nc3cc(CC(=O)Nc4cccc(F)c4)[nH]n3)ncnc2c1 [AZD2811] (first compound max 10 µM, 7x7, partner max 1 µM)"
measured_attribute = "Bliss excess"
obs_value = 0.0943

[[record]]
compound = "CCc1c2c(nc3ccc(O)cc13)-c1cc3c(c(=O)n1C2)COC(=O)[C@]3(O)CC [SN-38] + CN(C)CCCOc1ccc(-c2ccc3ncc4c(c3c2)n(C2CCOCC2)c(=O)n4C)cn1 [AZD0156] (first compound max 0.3 µM, 7x7, partner max 1 µM)"
measured_attribute = "Bliss excess"
obs_value = -0.0388

[[record]]
compound = "COc1nnc2ccc(N3CCC(c4ccc(OCCN5CCN(C)C(=O)[C@H]5C)cc4)CC3)nn12 [AZD5153] + C[C@@H]1COCCN1C2=NC(=NC(=C2)C3(CC3)[S@](=N)(=O)C)C4=C5C=CNC5=NC=C4 [AZD6738] (first compound max 1 µM, 7x7, partner max 10 µM)"
measured_attribute = "Bliss excess"
obs_value = -0.0228

[[record]]
compound = "Cc1cc2ncnn2cc1Nc1ncc2c(n1)n(C1CCOCC1)c(=O)n2C [AZD7648] + C=CCn1c(=O)c2cnc(Nc3ccc(N4CCN(C)CC4)cc3)nc2n1-c1cccc(C(C)(C)O)n1 [AZD1775] (first compound max 10 µM, partner max 1 µM)"
measured_attribute = "Bliss excess"
obs_value = 0.0442

[[record]]
compound = "CC1(C)CCC(CN2CCN(c3ccc(C(=O)NS(=O)(=O)c4ccc(NCC5CCOCC5)c([N+](=O)[O-])c4)c(Oc4cnc5[nH]ccc5c4)c3)CC2)=C(c2ccc(Cl)cc2)C1 [Venetoclax] + CN(C)CCCOc1ccc(-c2ccc3ncc4c(c3c2)n(C2CCOCC2)c(=O)n4C)cn1 [AZD0156] (first compound max 1 µM, 7x7, partner max 1 µM)"
measured_attribute = "Bliss excess"
obs_value = -0.0152

[[record]]
compound = "Cn1cnc2c(F)c(Nc3ccc(Br)cc3Cl)c(C(=O)NOCCO)cc21 [Selumetinib] + C[C@@H]1COCCN1C2=NC(=NC(=C2)C3(CC3)[S@](=N)(=O)C)C4=C5C=CNC5=NC=C4 [AZD6738] (first compound max 10 µM, 7x7, partner max 10 µM)"
measured_attribute = "Bliss excess"
obs_value = -0.0558

[[record]]
compound = "COc1cccc2c1C(=O)c1c(O)c3c(c(O)c1C2=O)C[C@@](O)(C(=O)CO)C[C@@H]3O[C@H]1C[C@H](N)[C@H](O)[C@H](C)O1 [Doxorubicin] + Cc1cc2ncnn2cc1Nc1ncc2c(n1)n(C1CCOCC1)c(=O)n2C [AZD7648] (first compound max 1 µM, 7x7, partner max 10 µM)"
measured_attribute = "Bliss excess"
obs_value = 0.058

[[record]]
compound = "C[C@@H](c1ccc2nccn2c1)n1nnc2ncc(-c3cnn(C)c3)nc21 [Savolitinib] + CN(CC[C@H](CSC1=CC=CC=C1)NC2=C(C=C(C=C2)S(=O)(=O)NC(=O)C3=CC=C(C=C3)N4CCC(CC4)[C@H](C5=CC=CC=C5C6=CC=C(C=C6)Cl)O)S(=O)(=O)C(F)(F)F)CCO [AZD4320] (first compound max 1 µM, 7x7, partner max 1 µM)"
measured_attribute = "Bliss excess"
obs_value = -0.0156

[[record]]
compound = "Cc1c2c(nn1C)CSCc1cc(n(C)n1)CSc1cc(c3ccccc3c1)OCCCc1c(C(=O)O)n(C)c3c-2c(Cl)ccc13 [AZD5991] + C1CN(CCC1(C(=O)N[C@@H](CCO)C2=CC=C(C=C2)Cl)N)C3=NC=NC4=C3C=CN4 [Capivasertib] (first compound max 1 µM, 7x7, partner max 3 µM)"
measured_attribute = "Bliss excess"
obs_value = 0.0778

[[record]]
compound = "COc1cccc(OCCCN)c1-c1cc(Nc2cnc(C#N)cn2)n[nH]1 [Prexasertib] + C[C@@H]1COCCN1C2=NC(=NC(=C2)C3(CC3)[S@](=N)(=O)C)C4=C5C=CNC5=NC=C4 [AZD6738] (first compound max 1 µM, 7x7, partner max 10 µM)"
measured_attribute = "Bliss excess"
obs_value = 0.017

[[record]]
compound = "COc1cc2ncnc(Nc3ccc(F)c(Cl)c3)c2cc1OCCCN1CCOCC1 [Gefitinib] + CC(C)n1c(=O)n(C)c2cnc3cc(F)c(-c4ccc(OCCCN5CCCCC5)nc4)cc3c21 [AZD1390] (first compound max 10 µM, 7x7, partner max 0.3 µM)"
measured_attribute = "Bliss excess"
obs_value = -0.0395

[[record]]
compound = "C[C@@H](c1ccc2nccn2c1)n1nnc2ncc(-c3cnn(C)c3)nc21 [Savolitinib] + CC1(C)CCC(CN2CCN(c3ccc(C(=O)NS(=O)(=O)c4ccc(NCC5CCOCC5)c([N+](=O)[O-])c4)c(Oc4cnc5[nH]ccc5c4)c3)CC2)=C(c2ccc(Cl)cc2)C1 [Venetoclax] (first compound max 1 µM, 7x7, partner max 1 µM)"
measured_attribute = "Bliss excess"
obs_value = -0.042

[[record]]
compound = "COc1nnc2ccc(N3CCC(c4ccc(OCCN5CCN(C)C(=O)[C@H]5C)cc4)CC3)nn12 [AZD5153] + CC1(C)CCC(CN2CCN(c3ccc(C(=O)NS(=O)(=O)c4ccc(NCC5CCOCC5)c([N+](=O)[O-])c4)c(Oc4cnc5[nH]ccc5c4)c3)CC2)=C(c2ccc(Cl)cc2)C1 [Venetoclax] (first compound max 1 µM, 7x7, partner max 1 µM)"
measured_attribute = "Bliss excess"
obs_value = -0.0183


----------
Reported combination Emax values are given for each entry in this list.
tested on: HOP-92 (Non-Small Cell Lung Carcinoma); test: combination Emax (second highest fraction inhibited in the dose matrix, 72 h); higher = more inhibition; extreme values may be limits of the assay
measured.attribute: combination Emax

[[record]]
compound = "Cn1cnc2c(F)c(Nc3ccc(Br)cc3Cl)c(C(=O)NOCCO)cc21 [Selumetinib] + C[C@@H]1COCCN1C2=NC(=NC(=C2)C3(CC3)[S@](=N)(=O)C)C4=C5C=CNC5=NC=C4 [AZD6738] (first compound max 10 µM, 7x7, partner max 10 µM)"
obs_value = 0.398

[[record]]
compound = "Cc1nc(Nc2ncc(C(=O)Nc3c(C)cccc3Cl)s2)cc(N2CCN(CCO)CC2)n1 [Dasatinib] + CC(=O)Nc1cccc(-n2c(=O)n(C3CC3)c(=O)c3c(Nc4ccc(I)cc4F)n(C)c(=O)c(C)c32)c1 [Trametinib] (first compound max 2 µM, 7x7, partner max 1 µM)"
obs_value = 0.928

[[record]]
compound = "Cc1c2c(nn1C)CSCc1cc(n(C)n1)CSc1cc(c3ccccc3c1)OCCCc1c(C(=O)O)n(C)c3c-2c(Cl)ccc13 [AZD5991] + CN(C)CCCOc1ccc(-c2ccc3ncc4c(c3c2)n(C2CCOCC2)c(=O)n4C)cn1 [AZD0156] (first compound max 1 µM, 7x7, partner max 1 µM)"
obs_value = 0.41

